Taken from ChEMBL document CHEMBL1961873.

targetDesc: Tyrosine-protein kinase ABL1 (Homo sapiens) (UniProt P00519)
Sequence (P00519 whole entry): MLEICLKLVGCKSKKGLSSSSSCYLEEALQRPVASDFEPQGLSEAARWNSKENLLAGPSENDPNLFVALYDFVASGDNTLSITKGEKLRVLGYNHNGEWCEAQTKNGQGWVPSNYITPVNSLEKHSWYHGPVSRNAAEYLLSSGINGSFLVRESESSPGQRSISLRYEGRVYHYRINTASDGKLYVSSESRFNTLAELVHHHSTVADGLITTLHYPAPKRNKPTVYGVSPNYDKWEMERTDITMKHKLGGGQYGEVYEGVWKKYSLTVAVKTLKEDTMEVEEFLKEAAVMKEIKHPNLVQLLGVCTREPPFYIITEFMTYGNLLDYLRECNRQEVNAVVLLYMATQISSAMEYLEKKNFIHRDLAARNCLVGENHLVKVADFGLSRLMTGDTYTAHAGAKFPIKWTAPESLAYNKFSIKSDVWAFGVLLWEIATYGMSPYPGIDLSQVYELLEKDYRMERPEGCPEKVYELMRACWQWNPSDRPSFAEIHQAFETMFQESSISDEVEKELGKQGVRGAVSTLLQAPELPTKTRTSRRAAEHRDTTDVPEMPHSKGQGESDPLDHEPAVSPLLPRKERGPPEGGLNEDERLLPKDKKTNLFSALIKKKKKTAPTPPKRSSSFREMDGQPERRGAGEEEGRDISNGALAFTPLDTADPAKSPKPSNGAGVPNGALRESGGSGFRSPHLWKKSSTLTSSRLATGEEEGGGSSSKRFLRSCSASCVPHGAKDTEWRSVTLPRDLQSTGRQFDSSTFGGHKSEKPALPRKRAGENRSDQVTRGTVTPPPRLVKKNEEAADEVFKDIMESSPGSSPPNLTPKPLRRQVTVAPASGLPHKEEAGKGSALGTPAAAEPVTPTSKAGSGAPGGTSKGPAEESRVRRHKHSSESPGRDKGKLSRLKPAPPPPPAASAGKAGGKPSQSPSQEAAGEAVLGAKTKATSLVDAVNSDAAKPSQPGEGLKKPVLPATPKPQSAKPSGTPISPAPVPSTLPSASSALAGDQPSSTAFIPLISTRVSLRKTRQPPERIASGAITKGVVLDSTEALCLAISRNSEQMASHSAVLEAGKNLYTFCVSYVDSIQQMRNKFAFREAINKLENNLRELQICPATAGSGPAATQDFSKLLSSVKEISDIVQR
conditionDetails: at 0.1 µM
Description: GSK_PKIS: ABL1 mean inhibition at 0.1 uM [Nanosyn]
Assign class by inhibition: not lower than 3% means Fulfilled; lower than 3% means Not fulfilled.

See these solved cases before continuing.
CC(=O)Nc1cccc(C#Cc2cncnc2Nc2ccc(OCc3cccc(F)c3)c(Cl)c2)n1 : Not fulfilled
O=C1NC(=O)C(c2cccc(Cl)c2)=C1Nc1ccc(O)c(Cl)c1 : Not fulfilled
Fc1cccc(COc2ccc(Nc3ncnc4cc(-c5ccc[nH]5)sc34)cc2Cl)c1 : Not fulfilled
CCn1c(-c2nonc2N)nc2cncc(C(=O)N3CCNCC3)c21 : Fulfilled

Now turn to the next molecule.
Hello, I need to know if CCn1c(-c2nonc2N)nc2cnc(Oc3cccc(NC(=O)c4ccc(OCCN5CCOCC5)cc4)c3)cc21 has measured inhibition not below 3%. Thanks!
Fulfilled

----------
Assign inhibition to each entry below.
targetDesc: Serine/threonine-protein kinase pim-1 (Homo sapiens);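 further: reported value is the mean inhibition of PIM1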
conditionDetails: at 0.1 µM
Give bare numbers, in %.

Worked examples, 6 molecules total:
CS(=O)(=O)CCNCc1nc(-c2ccc3ncnc(Nc4ccc(F)c(Cl)c4)c3c2)cs1 : 1.43
CCc1cccc(NC(=O)Nc2ccc(Oc3ccc4nc(NC(=O)OC)[nH]c4c3)cc2)c1 : 1.27
COc1cc(C)c(NC(=O)CN(C)C)cc1Nc1nc(Nc2cccc(F)c2C(N)=O)c2cc[nH]c2n1 : 8.2
COc1cc2ncn(-c3cc(OCc4ccccc4C(F)(F)F)c(C(N)=O)s3)c2cc1OC : -0.79
[O-][S+]1CCN(Cc2ccc(-c3ccc4ncnc(Nc5ccc(OCc6ccccc6)c(F)c5)c4c3)o2)CC1 : 0.8
CCn1c(-c2nonc2N)nc2c(C#CC(C)(C)O)nc(CN3CCCC3)cc21 : 0.28

Dear colleague, could you please provide inhibition for the molecules listed below?
1. CN1CCC(C(=O)Nc2n[nH]c3nnc(-c4ccccc4)cc23)CC1
2. CC1=C(C(=O)Nc2ccc3[nH]ncc3c2)C(c2ccc(Cl)c(Cl)c2)CC(=O)N1 (centres undefined)
3. Nc1nc(-c2ccccn2)c(-c2ccc3ncccc3n2)s1

[1.63, -0.12, 0.81]

----------
Assign inhibition to each entry below.
targetDesc: RAC-gamma serine/threonine-protein kinase (Homo sapiens)
conditionDetails: at 1 µM
Description: GSK_PKIS: AKT3 mean inhibition at 1 uM [Nanosyn]
Give bare numbers, in %.

Worked examples, 2 compounds total:
COc1ccc(COc2ccc(Cc3cnc(N)nc3N)cc2OC)cc1 : 0.93
CS(=O)(=O)CCNCc1ccc(-c2ccc3ncnc(Nc4ccc(OCc5ccccc5)c(Cl)c4)c3c2)o1 : -0.63

Dear colleague, could you please provide inhibition for the compounds listed below?
1. CN(C)c1cc2c(Nc3ccc4nc(Cc5ccccc5)[nH]c4c3)ncnc2cn1
2. Cc1nn(C)c2cc(N(C)c3ccnc(Nc4cccc(S(N)(=O)=O)c4)n3)ccc12

3.27
1.54

----------
targetDesc: Serine/threonine-protein kinase D2 (Homo sapiens) (UniProt Q9BZL6);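 further: reported percent inhibition values are means, part of the GSK PKIS kinase panel screen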
Sequence (Q9BZL6 whole entry): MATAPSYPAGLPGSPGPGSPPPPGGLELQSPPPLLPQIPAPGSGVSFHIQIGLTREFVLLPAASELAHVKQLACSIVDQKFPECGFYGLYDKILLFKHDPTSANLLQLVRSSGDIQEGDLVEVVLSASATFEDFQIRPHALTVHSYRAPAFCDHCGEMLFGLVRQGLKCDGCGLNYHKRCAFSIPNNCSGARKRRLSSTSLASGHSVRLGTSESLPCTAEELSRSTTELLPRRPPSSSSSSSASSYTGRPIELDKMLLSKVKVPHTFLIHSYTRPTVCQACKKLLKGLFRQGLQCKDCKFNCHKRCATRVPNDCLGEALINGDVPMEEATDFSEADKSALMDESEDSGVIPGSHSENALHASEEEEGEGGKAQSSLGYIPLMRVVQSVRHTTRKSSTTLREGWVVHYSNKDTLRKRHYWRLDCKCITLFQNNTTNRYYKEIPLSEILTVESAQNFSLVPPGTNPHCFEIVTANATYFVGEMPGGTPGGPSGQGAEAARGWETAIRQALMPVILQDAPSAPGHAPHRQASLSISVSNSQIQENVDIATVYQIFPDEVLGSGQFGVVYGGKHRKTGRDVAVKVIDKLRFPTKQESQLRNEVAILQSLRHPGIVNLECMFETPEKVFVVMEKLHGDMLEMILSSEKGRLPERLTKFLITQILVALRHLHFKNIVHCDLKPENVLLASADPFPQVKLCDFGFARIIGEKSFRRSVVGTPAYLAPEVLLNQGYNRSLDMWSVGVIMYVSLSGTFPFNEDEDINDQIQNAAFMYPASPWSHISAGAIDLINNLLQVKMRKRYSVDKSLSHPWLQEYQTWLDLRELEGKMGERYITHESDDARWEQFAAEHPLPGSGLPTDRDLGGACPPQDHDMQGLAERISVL
conditionDetails: at 0.1 µM
Assign inhibition to each entry below.

Nc1nc(-c2ccc3c(c2)C(=Cc2cc(Br)c(O)c(Br)c2)C(=O)N3)cs1 : -2.06%

Dear colleague, could you please provide inhibition for the compounds listed below?
1. N#Cc1c(NC(=O)c2cccc3ccccc23)sc2c1CCCC2
2. c1cnn2ncc(-c3ccnc(Nc4ccc5c(c4)OCCO5)n3)c2c1
3. CCn1c(-c2nonc2N)nc2cnc(Oc3cccc(NC(=O)c4ccc(OCCN5CCOCC5)cc4)c3)cc21
4. O=C1NC(=O)C(N2CCc3ccccc32)=C1c1ccc(Cl)cc1
5. NS(=O)(=O)c1ccc(N/N=C2\C(=O)Nc3ccc(C(=O)NCCc4c[nH]cn4)cc32)cc1
6. CCN1CCC(CC(=O)Nc2n[nH]c3nc(-c4cccs4)c(Br)cc23)CC1
7. Nc1ncnc2occ(-c3ccc(NC(=O)Nc4cc(C(F)(F)F)cc(C(F)(F)F)c4)cc3)c12
8. COc1cc2ncn(-c3cc(O[C@H](C)c4ccccc4Cl)c(C(N)=O)s3)c2cc1OC

1. 2.17%
2. 5.55%
3. 3.04%
4. 4.57%
5. 5.45%
6. -2.1%
7. 1.61%
8. 2.69%

Reported inhibition for CS(=O)(=O)CCN(CC#N)Cc1ccc(-c2ccc3ncnc(Nc4ccc(OCc5cccc(F)c5)c(Cl)c4)c3c2)o1 was -2.89%

----------
targetDesc: Fibroblast growth factor receptor 4 (Homo sapiens);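 further: values are mean percent inhibition of FGFR4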
conditionDetails: at 0.1 µM
measuredProperty: inhibition (%)
Give bare numbers, in %.

COc1cc(C)c(NC(=O)CN(C)C)cc1Nc1nc(Nc2cccc(F)c2C(N)=O)c2cc[nH]c2n1 : -1.04
CCn1c(-c2nonc2N)nc2cnc(Oc3cccc(NC(=O)c4ccc(OCCN5CCOCC5)cc4)c3)cc21 : -4.45
COc1cc(C=NNc2ncnc3c2cnn3-c2ccccc2)ccc1O : 4.25
Cn1cc(C=C2C(=O)Nc3cccnc32)c2ccccc21 : 2.46
CS(=O)(=O)Nc1ccc(N/C=C2\C(=O)Nc3ccccc32)cc1 : 2.33

Dear colleague, could you please provide inhibition for the molecules listed below?
1. c1cnn2ncc(-c3ccnc(Nc4ccc5c(c4)OCCO5)n3)c2c1
2. CC(=O)Nc1cccc(C#Cc2cncnc2Nc2ccc(OCc3cccc(F)c3)c(Cl)c2)n1
3. Nc1ncnc2occ(-c3ccc(NC(=O)Nc4cccc(C(F)(F)F)c4)cc3)c12
4. COC(=O)Nc1nc2cc(Oc3ccc(NC(=O)Nc4cccc(C(=O)O)c4)cc3)ccc2[nH]1
5. CNC(=O)c1cncc(/C=C/c2c(Cl)cccc2Cl)c1
6. O=C1NC(=O)C(c2ccccc2Cl)=C1Nc1cccc(O)c1
7. Cc1nn(C)c2cc(N(C)c3ccnc(Nc4cccc(S(N)(=O)=O)c4)n3)ccc12

1. -0.77
2. 0.06
3. -1
4. -6.8
5. 1.14
6. 1.92
7. -9.61

----------
System: Mast/stem cell growth factor receptor Kit (Homo sapiens), P10721 [V560G]
Sequence (P10721 whole entry V560G): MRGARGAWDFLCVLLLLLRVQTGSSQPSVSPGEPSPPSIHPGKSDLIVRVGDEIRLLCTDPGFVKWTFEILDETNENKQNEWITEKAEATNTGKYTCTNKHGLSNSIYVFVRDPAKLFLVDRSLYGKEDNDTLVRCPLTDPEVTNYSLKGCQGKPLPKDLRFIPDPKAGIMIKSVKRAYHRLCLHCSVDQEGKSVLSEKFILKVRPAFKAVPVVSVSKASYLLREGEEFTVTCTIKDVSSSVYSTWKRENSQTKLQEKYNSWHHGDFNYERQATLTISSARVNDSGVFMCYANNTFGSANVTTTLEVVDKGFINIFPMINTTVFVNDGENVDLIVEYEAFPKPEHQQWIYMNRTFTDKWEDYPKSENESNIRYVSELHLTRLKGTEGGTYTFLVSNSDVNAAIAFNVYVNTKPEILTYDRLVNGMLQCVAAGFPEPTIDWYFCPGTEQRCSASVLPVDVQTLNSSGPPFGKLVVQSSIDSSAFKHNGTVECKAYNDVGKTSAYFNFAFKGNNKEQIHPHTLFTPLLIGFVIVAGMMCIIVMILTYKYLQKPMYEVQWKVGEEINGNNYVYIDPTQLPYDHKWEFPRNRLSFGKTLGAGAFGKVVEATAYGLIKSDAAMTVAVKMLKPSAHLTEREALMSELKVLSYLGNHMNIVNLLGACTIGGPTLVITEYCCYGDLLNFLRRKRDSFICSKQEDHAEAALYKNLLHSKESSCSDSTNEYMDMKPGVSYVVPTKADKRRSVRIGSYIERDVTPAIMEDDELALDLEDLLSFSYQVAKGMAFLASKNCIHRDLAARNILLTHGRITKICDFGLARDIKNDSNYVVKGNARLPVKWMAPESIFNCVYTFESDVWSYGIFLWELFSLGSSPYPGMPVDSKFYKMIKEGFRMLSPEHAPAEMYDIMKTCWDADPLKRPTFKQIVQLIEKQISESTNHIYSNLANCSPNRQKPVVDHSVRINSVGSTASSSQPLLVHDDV
conditionDetails: at 1 µM
Assign inhibition to each entry below.
Numbers only, in %.

CS(=O)(=O)CCNCc1ccc(-c2ccc3ncnc(Nc4ccc(OCc5ccccc5)c(Cl)c4)c3c2)o1 : 1.37
O=C1Nc2ccc(C(=O)c3ccco3)cc2C1=Cc1cc(Cl)c(O)c(Cl)c1 : 6.75
COc1ccc(-c2ccncc2)cc1C(N)=O : -1.88
O=C1NC(=O)C(c2ccc(Cl)cc2)=C1Nc1ccc(Cl)c(C(=O)O)c1 : 8.56

Dear colleague, could you please provide inhibition for the compounds listed below?
1. CCn1c(-c2nonc2N)nc2cnc(Oc3cccc(NC(=O)c4ccc(OCCN5CCOCC5)cc4)c3)cc21
2. COc1ccccc1Nc1ncc(-c2ccccc2)o1
3. O=C1NC(=O)C(c2ccccc2Cl)=C1Nc1cccc(O)c1
4. Cc1cccc(-c2n[nH]cc2-c2ccc3ncccc3n2)n1
5. CS(=O)(=O)CCNCc1ccc(-c2ccc3ncnc(Nc4ccc(OCc5cccc(F)c5)c(C(F)(F)F)c4)c3c2)o1

[2.85, 85.5, 1.68, -0.13, -0.7]

----------
targetDesc: Tyrosine-protein kinase Fes/Fps (Homo sapiens)
conditionDetails: at 0.1 µM
Description: GSK_PKIS: FES mean inhibition at 0.1 uM [Nanosyn]
measuredProperty: inhibition (%)
One number for each entry, in %.

Worked examples, 4 compounds total:
COc1ccc(COc2ccc(Cc3cnc(N)nc3N)cc2OC)cc1 : 1.72
CS(=O)(=O)CCNCc1ccc(-c2ccc3ncnc(Nc4ccc(OCc5cccc(F)c5)c(C(F)(F)F)c4)c3c2)o1 : 2.48
COc1cccc(-n2ncc3c(N/N=C/c4cccc(F)c4)ncnc32)c1 : 1.31
Nc1ncnc2occ(-c3ccc(NC(=O)Nc4cccc(C(F)(F)F)c4)cc3)c12 : 3.8

Reported inhibition for COc1cc2c(cc1Nc1nc(N3CCc4ccccc43)c3cc[nH]c3n1)N(C(=O)CN(C)C)CC2 was 39.9

----------
targetDesc: Serine/threonine-protein kinase B-raf (Homo sapiens) (UniProt P15056);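 further: reported value is the mean percent inhibition of BRAF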
Sequence (P15056 whole entry): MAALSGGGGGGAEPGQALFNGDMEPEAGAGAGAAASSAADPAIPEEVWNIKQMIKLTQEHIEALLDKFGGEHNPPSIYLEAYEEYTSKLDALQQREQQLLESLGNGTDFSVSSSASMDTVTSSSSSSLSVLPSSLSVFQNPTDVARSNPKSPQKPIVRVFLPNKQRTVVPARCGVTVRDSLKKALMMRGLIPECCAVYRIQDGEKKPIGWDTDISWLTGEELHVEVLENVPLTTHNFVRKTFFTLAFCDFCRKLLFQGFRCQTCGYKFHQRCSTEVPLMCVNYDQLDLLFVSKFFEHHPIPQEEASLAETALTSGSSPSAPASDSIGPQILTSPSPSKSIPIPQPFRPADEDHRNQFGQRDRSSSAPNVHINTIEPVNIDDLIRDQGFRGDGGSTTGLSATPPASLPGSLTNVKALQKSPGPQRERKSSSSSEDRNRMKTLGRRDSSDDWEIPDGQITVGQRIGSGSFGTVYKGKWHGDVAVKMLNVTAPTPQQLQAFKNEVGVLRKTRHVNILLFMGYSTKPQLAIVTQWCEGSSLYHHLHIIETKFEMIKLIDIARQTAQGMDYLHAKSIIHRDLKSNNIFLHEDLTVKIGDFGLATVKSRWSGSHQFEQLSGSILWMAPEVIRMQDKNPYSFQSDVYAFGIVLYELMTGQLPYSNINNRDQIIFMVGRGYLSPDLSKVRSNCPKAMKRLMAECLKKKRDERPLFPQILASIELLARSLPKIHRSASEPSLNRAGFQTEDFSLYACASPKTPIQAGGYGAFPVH
conditionDetails: at 1 µM
measuredProperty: inhibition (%)
Numbers only, in %.

CCn1c(-c2nonc2N)nc2ccncc21 : 2.33
CCc1cccc(NC(=O)Nc2ccc(Oc3ccc4nc(NC(=O)OC)[nH]c4c3)cc2)c1 : 12.2
O=C(Nc1n[nH]c2nc(-c3ccco3)c(Br)cc12)C1CC1 : 5.7

Dear colleague, could you please provide inhibition for the compounds listed below?
1. Nc1nc(-c2ccc3c(c2)C(=Cc2cc(Br)c(O)c(Br)c2)C(=O)N3)cs1
2. CC1=C(C(=O)Nc2ccc3[nH]ncc3c2)C(c2ccc(Cl)c(Cl)c2)CC(=O)N1 (stereo not given)
3. CC(=O)Nc1cccc(C#Cc2cncnc2Nc2ccc(OCc3cccc(F)c3)c(Cl)c2)n1
4. COc1ccc2cc(-c3c(-c4ccncc4)nc(-c4ccc([S+](C)[O-])cc4)n3C)ccc2c1 (stereo not given)

[13.7, 31.6, -3.08, 5.05]

Dear colleague, could you please provide inhibition for the compounds listed below?
1. COc1cccc(-n2ncc3c(N/N=C/c4cccc(F)c4)ncnc32)c1
2. CS(=O)(=O)CCN(CC#N)Cc1ccc(-c2ccc3ncnc(Nc4ccc(OCc5cccc(F)c5)c(Cl)c4)c3c2)o1
3. COc1cc2ncn(-c3cc(OCc4ccccc4Cl)c(C(N)=O)s3)c2cc1OC

5.91
1.74
2.15
